# System: SARS-CoV-2
# testMethodNotes: Antiviral activity against SARS-CoV-2 nCoV-2019BetaCoV/Wuhan/WIV04/2019 infected in African green monkey Vero E6 cells assessed as reduction in viral yield preincubated with cells for 1 hrs followed by viral infection for 1 hrs with subsequent replacement of fresh media containing compound and measured 24 hrs post infection by qRT-PCR analysis
# Format: functional, organism-based
# assaySetup: Severe acute respiratory syndrome coronavirus 2, nCoV-2019BetaCoV/Wuhan/WIV04/2019, Vero C1008
recordedEndpoint: EC50 (µM)
Just the number in µM, nothing appended.

I am curious: what EC50 value has been reported for C=C1C(=O)O[C@@]23C1CC[C@@H](C)[C@@H]2CC[C@@]1(C)O[C@@H]31 (stereo partly specified) ? 10.3
